System: HIV mutant strain Y181C
Assay: Cell-based assay using BH-10 cells, Y181C mutant
Details: Human immunodeficiency virus 1, read-out: EC50 Y181C, BH-10 cells, Y181C mutant
Experimental: In a typical embodiment, the NNRTIs display an EC50 in a mutant HIV strain of less than approximately 5, 2.5, 1 or 0.1 μM concentration. […] The degree of cross-resistance against a drug resistant strain of HIV can easily be measured by assessing the EC50 of the desired indole in the target mutated i.e., drug resistant, virus.
Recorded measurements of EC50, one per entry

{"columns": ["molecule", "target-or-system", "EC50"],
 "data": [
  ["COP(=O)(c1cccc(C)c1)c1c(C(=O)NCc2ccncc2)[nH]c2ccc(Cl)cc12 (centres unmarked) [Compound 18a]", "HIV mutant strain Y181C", "10.1 nM"],
  ["COP(=O)(c1ccccc1)c1c(C(=O)NCN2CCOCC2)[nH]c2ccc(Cl)cc12 (centres unmarked) [Compound 18aac]", "HIV mutant strain Y181C", "10.1 nM"],
  ["COP(=O)(c1cccc(C)c1)c1c(C(=O)NCc2ccco2)[nH]c2ccc(Cl)cc12 (centres unmarked) [Compound 18b]", "HIV mutant strain Y181C", "10.1 nM"],
  ["COP(=O)(c1cc(C)cc(C#N)c1)c1c(C(=O)NCc2cc[n+]([O-])cc2)[nH]c2ccc(Cl)cc12 (centres unmarked) [Compound 22ak]", "HIV mutant strain Y181C", "6.7 nM"],
  ["COP(=O)(CC=C(C)C)c1c(C(N)=O)[nH]c2ccc(Cl)cc12 (centres unmarked) [Compound 57b]", "HIV mutant strain Y181C", "13.1 nM"]
]}

---

test system: HIV mutant strain Y181C; assay: Cell-based assay using BH-10 cells, Y181C mutant; details: Human immunodeficiency virus 1, read-out: EC50 Y181C, BH-10 cells, Y181C mutant
Reported log10(EC50) values for a set of compounds
recorded-metric: log10(EC50) (log10 of the value in nM)

{"columns": ["compound", "target-or-system", "recorded-metric", "result"],
 "data": [
  ["COP(=O)(c1cc(C)cc(C)c1)c1c(C(=O)NCc2ccc[n+]([O-])c2)[nH]c2ccc(Cl)cc12 (centres unmarked) [Compound 22b]", "HIV mutant strain Y181C", "log10(EC50)", 1.27],
  ["COP(=O)(c1ccccc1)c1c(C(N)=O)[nH]c2ccc(Cl)cc12 (centres unmarked) [Compound 7ah]", "HIV mutant strain Y181C", "log10(EC50)", 0.69],
  ["CCOP(=O)(c1ccccc1CC)c1c(C(N)=O)[nH]c2ccc(Cl)cc12 (centres unmarked) [Compound 6ah]", "HIV mutant strain Y181C", "log10(EC50)", 2.32],
  ["COP(=O)(c1cc(C)cc(C)c1)c1c(C(=O)NCc2cc[n+]([O-])cc2F)[nH]c2ccc(Cl)cc12 (centres unmarked) [Compound 22d]", "HIV mutant strain Y181C", "log10(EC50)", 0.18],
  ["COP(=O)(c1cccc(-c2ccccc2)c1)c1c(C(N)=O)[nH]c2ccc(Cl)cc12 (centres unmarked) [Compound 7i]", "HIV mutant strain Y181C", "log10(EC50)", 2.60],
  ["COP(=O)(c1ccccc1)c1c(C(=O)NCc2ccncc2)[nH]c2ccc(Cl)cc12 (centres unmarked) [Compound 18ar]", "HIV mutant strain Y181C", "log10(EC50)", 0.75],
  ["CCc1ccccc1P(=O)(OC)c1c(C(N)=O)[nH]c2ccc(Cl)cc12 (centres unmarked) [Compound 7an]", "HIV mutant strain Y181C", "log10(EC50)", 1.70]
]}
